B1: SLC2A12 (parent)
chain: LTLVFFVQITGQPNILFYASTVLK

Variants of: B1
Test protocol: protein stability index of a GFP-peptide fusion (GPS, HEK-293T) (PSI 1-6); higher = more stable;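 also: lentivirally expressed fusions sorted by FACS into six bins by GFP to DsRed ratio, PSI derived from sequencing read proportions per bin multiplied by bin number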
Applied conditions: c terminus: a fixed tail appended
Readout type: protein stability index
// no unit, no text: just the number

Given the variant FTLVFFVQITGQPNILFYASTVLK [L1F] , what is its reported protein stability index?
4.63

Same thing, different variant: LTLVFFVQITGQPNIGFYASTVLK [L16G]
2.02

Same thing, different variant: TTLVFFVQITGQPNILFYASTVLK [L1T]
3.79

Same thing, different variant: LTLVFFVQQTGQPNILFYASTVLK [I9Q]
1.99

Same thing, different variant: LTLVFFVQITGQPNILFIASTVLK [Y18I]
2.47

Same thing, different variant: LTLKFFVQITGQPNILFYASTVLK [V4K]
2.64

Same thing, different variant: LTLVFFVQETGQPNILFYASTVLK [I9E]
4.04

Same thing, different variant: LTLVFFVQITGQPNILFYASTVMK [L23M]
3.81

Same thing, different variant: LTLVFFVQITGQPNITFYASTVLK [L16T]
3.51

Same thing, different variant: LTLVFFVQITGQPNILFYAGTVLK [S20G]
3.23

Same thing, different variant: LTLVFFVQITGQPNILFPASTVLK [Y18P]
4.25

Same thing, different variant: LTLVFFVLITGQPNILFYASTVLK [Q8L]
2.46

Same thing, different variant: LTLVFFVQITGSPNILFYASTVLK [Q12S]
2.21

Same thing, different variant: LILVFFVQITGQPNILFYASTVLK [T2I]
4.67

Same thing, different variant: LTLVFFVQITGQPNILFYASTVLE [K24E]
3.5

Same thing, different variant: LTLVFFVQITGQHNILFYASTVLK [P13H]
3.43

Same thing, different variant: LTLVFFVQITGQPNILFYASEVLK [T21E]
2.46

Same thing, different variant: LTLVIFVQITGQPNILFYASTVLK [F5I]
2.45

Same thing, different variant: LTLVFFVQITGQPNICFYASTVLK [L16C]
2.98

Same thing, different variant: LMLVFFVQITGQPNILFYASTVLK [T2M]
3.56

Same thing, different variant: LTLVFFVQITGQPNILFYAQTVLK [S20Q]
2.48

Same thing, different variant: LTLVFFVQITGQRNILFYASTVLK [P13R]
3.44

Same thing, different variant: LTLVFFVQITGQPNILFYASTRLK [V22R]
3.38

Same thing, different variant: LTLVFFVTITGQPNILFYASTVLK [Q8T]
3.53

Same thing, different variant: LTLVFFVQITGQPNILYYASTVLK [F17Y]
2.63

Same thing, different variant: LTLVFFVQITGQPRILFYASTVLK [N14R]
3.96

Same thing, different variant: LTLVFFVQITGQPNILFYASTVLT [K24T]
2.2

Same thing, different variant: LTLVFFHQITGQPNILFYASTVLK [V7H]
3.64

Same thing, different variant: LTLVFFVQITGQPNILFYASTVLA [K24A]
2.9

Same thing, different variant: LTLIFFVQITGQPNILFYASTVLK [V4I]
2.99

Same thing, different variant: LTLVFFVQITGQPNIHFYASTVLK [L16H]
1.6

Same thing, different variant: LTLVFFVQITGQPNILFYASCVLK [T21C]
3.33

Same thing, different variant: LTLVRFVQITGQPNILFYASTVLK [F5R]
3.67

Same thing, different variant: LTLVFTVQITGQPNILFYASTVLK [F6T]
2.35

Same thing, different variant: LTLVFFVQITGQPNILFYASTVLL [K24L]
1.12

Same thing, different variant: LTLVFFVQITAQPNILFYASTVLK [G11A]
2.87

Same thing, different variant: LTQVFFVQITGQPNILFYASTVLK [L3Q]
3.25

Same thing, different variant: LTLVFFVQITGQPFILFYASTVLK [N14F]
3.6

Same thing, different variant: RTLVFFVQITGQPNILFYASTVLK [L1R]
1.8

Same thing, different variant: LTLVFFVQLTGQPNILFYASTVLK [I9L]
5.05

Same thing, different variant: LTLVFFVQITGQPNILFYASLVLK [T21L]
2.38

Same thing, different variant: LTLVFFVQITGQPNILSYASTVLK [F17S]
2.69

Same thing, different variant: LTLVFFVQITGQPNILFYASTLLK [V22L]
2.28

Same thing, different variant: LTLVFFVQITGQPNIMFYASTVLK [L16M]
3.19

Same thing, different variant: LTLVFFVQITGQPNALFYASTVLK [I15A]
2.99

Same thing, different variant: VTLVFFVQITGQPNILFYASTVLK [L1V]
2.75
